target: GDP-bound KRAS protein (aa 1-169), containing both G12D and C118A amino acid substitutions (Homo sapiens, UniProt P01116, C118A/G12D); assay: KRAS G12D Coupled Nucleotide Exchange Assay; assay type: biochemical; conditions: 2 h compound pre-incubation
Sequence (P01116 1-169 isoform P01116-2 G12D/C118A): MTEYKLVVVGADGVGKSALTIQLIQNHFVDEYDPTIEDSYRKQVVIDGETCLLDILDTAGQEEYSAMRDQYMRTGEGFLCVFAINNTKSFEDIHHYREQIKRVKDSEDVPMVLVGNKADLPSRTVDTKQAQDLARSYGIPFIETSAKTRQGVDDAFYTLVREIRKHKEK
result type: Avg 2 h Coupled Exchange IC50 (nM)

>>> reported_value("CCC(O)(CC)COc1nc(N2C[C@H]3CC[C@@H](C2)N3)c2cc(F)c(-c3cc(O)cc4ccc(F)c(F)c34)c(F)c2n1")
19
>>> reported_value("CN1C[C@H](F)C[C@H]1COc1nc2c(F)c(-c3cc(O)cc4ccccc34)c(Cl)cc2c(N2C[C@H]3CC[C@@H](C2)N3)c1C#N")
555
>>> reported_value("Oc1cc(-c2ccc3c(N4[C@@H]5CC[C@H]4CNC5)nc(OC[C@@]45CCCN4C[C@H](F)C5)nc3c2F)c2cccnc2c1")
80
>>> reported_value("Fc1c(-c2cccc(Cl)c2C(F)(F)F)ccc2c(N3C[C@H]4CC[C@@H](C3)N4)nc(OC[C@@]34CCCN3C[C@H](F)C4)nc12")
3
>>> reported_value("C=Cc1c(F)ccc2cccc(-c3ccc4c(N5[C@@H]6CC[C@H]5CNC6)nc(OC[C@@]56CCCN5C[C@H](F)C6)nc4c3)c12")
2300
>>> reported_value("CN1CCC[C@H]1CCOc1nc(N2C[C@H]3C[C@@H](C2)N3)c2cc(F)c(-c3cc(O)cc4ccccc34)c(F)c2n1")
78

---

biological target: His-tagged KRAS G12D protein (Homo sapiens, UniProt P01116, G12D); assay: KRAS G12D TR-FRET Assay
Sequence (P01116 1-188 isoform P01116-2 G12D): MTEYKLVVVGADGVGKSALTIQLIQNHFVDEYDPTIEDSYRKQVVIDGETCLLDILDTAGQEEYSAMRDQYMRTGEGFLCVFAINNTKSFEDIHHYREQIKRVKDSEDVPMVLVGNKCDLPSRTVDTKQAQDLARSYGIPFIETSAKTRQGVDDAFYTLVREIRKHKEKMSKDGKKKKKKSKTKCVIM
pIC50: −log10 of the molar value.
Each entry below lists one item and its recorded pIC50 value.
result type: pIC50

>>> reported_value("C#Cc1c(F)ccc2cc(O)cc(-c3cc4nc(OC[C@@]56CCCN5C[C@H](F)C6)nc(N5C[C@H]6CC[C@@H](C5)N6)c4cc3F)c12")
9.00
>>> reported_value("CCc1c(F)ccc2cc(O)cc(-c3c(N)cc4c(N5C[C@H]6CC[C@@H](C5)N6)nc(OC[C@@]56CCCN5C[C@H](F)C6)nc4c3F)c12")
8.40
>>> reported_value("N#Cc1cc2c(N3C[C@H]4CC[C@@H](C3)N4)nc(OC[C@@]34CCCN3C[C@H](F)C4)nc2c(F)c1-c1cc(O)cc2ccccc12")
9.00
>>> reported_value("CCc1c(F)ccc2cc(O)cc(-c3c(F)cc4c(N5C[C@H]6CCC[C@@H](C5)N6)nc(OC[C@@]56CCCN5C[C@H](F)C6)nc4c3F)c12")
8.30
>>> reported_value("CCc1c(F)ccc2cc(O)cc(-c3c(F)cc4c(N5C[C@H]6CC[C@@H](C5)N6)nc(OCC5(C)CCC(=O)N5)nc4c3F)c12 (stereo partly drawn)")
8.30
>>> reported_value("C#Cc1cccc2cc(O)cc(-c3ccc4c(N5C[C@H]6CC[C@@H](C5)N6)nc(OC[C@@]56CCCN5C[C@H](F)C6)nc4c3C)c12")
8.52
>>> reported_value("Cc1ccc2[nH]nc(C)c2c1-c1ccc2c(N3C[C@H]4CC[C@@H](C3)N4)nc(OC[C@@]34CCCN3C[C@H](F)C4)nc2c1F")
7.17
>>> reported_value("Oc1cc(-c2ccc3c(N4C[C@H]5CC[C@@H](C4)N5)nc(OC[C@@]45CCCN4C[C@H](F)C5)nc3c2)c2ccccc2c1")
8.70
>>> reported_value("Nc1cc(-c2c(F)cc3c(N4C[C@H]5CC[C@@H](C4)N5)nc(OC[C@@]45CCCN4C[C@H](F)C5)nc3c2F)c2ccccc2c1")
7.52
>>> reported_value("Oc1cc(-c2c(Cl)cc3c(N4C[C@H]5CC[C@@H](C4)N5)nc(OC[C@@]45CCCN4C[C@H](F)C5)nc3c2F)c2c(F)cccc2c1")
7.43
>>> reported_value("Cc1cc2[nH]ncc2c(-c2ccc3c(N4C[C@H]5CC[C@@H](C4)N5)nc(OC[C@@]45CCCN4C[C@H](F)C5)nc3c2)c1Cl")
7.70
>>> reported_value("Cc1ccc2[nH]ncc2c1-c1ccc2c(N3C[C@H]4CC[C@@H](C3)N4)nc(OC[C@@]34CCCN3C[C@H](F)C4)nc2c1F")
7.40
>>> reported_value("Oc1cc(-c2ccc3c(N4C[C@H]5CC[C@@H](C4)N5)nc(OC[C@@]45CCCN4C[C@H](F)C5)nc3c2F)c2ccccc2c1F")
9.00
>>> reported_value("Oc1cc(-c2cc3nc(OC[C@@]45CCCN4C[C@H](F)C5)nc(N4C[C@@H]5CC[C@H]4CN5)c3cc2F)c2c(F)c(F)ccc2c1")
8.70
>>> reported_value("CN1CCC[C@H]1CCOc1nc(N2C[C@H]3C[C@@H](C2)N3)c2cc(F)c(-c3cc(O)cc4ccccc34)c(F)c2n1")
6.50
>>> reported_value("Cc1cc2[nH]ncc2c(-c2ccc3c(N4[C@@H]5CC[C@H]4CNC5)nc(OC[C@@]45CCCN4C[C@H](F)C5)nc3c2)c1Cl")
6.71
>>> reported_value("CCc1c(F)ccc2cc(O)cc(-c3c(F)cc4c(N5C[C@H]6CC[C@@H](C5)N6)nc(OC[C@H]5CCC(=O)N5)nc4c3F)c12")
7.92
>>> reported_value("Oc1cc(-c2ccc3c(N4[C@@H]5CC[C@H]4CNC5)nc(OC[C@@]45CCCN4C[C@H](F)C5)nc3c2F)c2ncccc2c1")
7.24
>>> reported_value("Oc1cc(-c2c(Cl)cc3c(N4C[C@H]5CC[C@@H](C4)N5)nc(OC[C@@]45CCCN4C[C@H](F)C5)nc3c2F)c2c(Cl)cccc2c1")
8.40
>>> reported_value("N#Cc1c(OC[C@@]23CCCN2C[C@H](F)C3)nc2c(F)c(-c3cc(O)cc4ccccc34)ccc2c1N1C[C@H]2CC[C@@H](C1)N2")
5.58
>>> reported_value("CCc1c(F)ccc2cc(O)cc(-c3ccc4c(N5C[C@H]6CC[C@@H](C5)N6)nc(OC[C@@]56CCCN5C[C@H](F)C6)nc4c3C)c12")
8.00
>>> reported_value("Oc1cc(-c2c(F)cc3c(N4C[C@H]5CCC[C@@H](C4)N5)nc(OC[C@@]45CCCN4C[C@H](F)C5)nc3c2F)c2ccccc2c1")
8.10
>>> reported_value("Cc1c(Cl)cc2[nH]ncc2c1-c1ccc2c(N3C[C@H]4CC[C@@H](C3)N4)nc(OC[C@@]34CCCN3C[C@H](F)C4)nc2c1F")
8.40

Entry source: patent US20250059205A1
